# target.of.assay: GlcNAc(b1-3)Gal(b1-4)GlcNAc(b1-3)Gal(b1-4)GlcNAc(b1-3)Gal(b1-4)GlcNAc(b1-2)Man(a1-3)[GlcNAc(b1-3)Gal(b1-4)GlcNAc(b1-3)Gal(b1-4)GlcNAc(b1-3)Gal(b1-4)GlcNAc(b1-2)Man(a1-6)]Man(b1-4)GlcNAc(b1-4)GlcNAc
# experiment: glycan array binding signal (z-score within array); higher = stronger binding
# experimental.setup: glycan notation: IUPAC condensed, linker removed
Many of the other results were omitted from the sample, so the strongest signals are more common in it than they were.
Answer 0 if glycan array binding signal (z-score) is under 0.06, and 1 if it is 0.06 or more.

binder="EUL D1A second (Oryza sativa) (protein) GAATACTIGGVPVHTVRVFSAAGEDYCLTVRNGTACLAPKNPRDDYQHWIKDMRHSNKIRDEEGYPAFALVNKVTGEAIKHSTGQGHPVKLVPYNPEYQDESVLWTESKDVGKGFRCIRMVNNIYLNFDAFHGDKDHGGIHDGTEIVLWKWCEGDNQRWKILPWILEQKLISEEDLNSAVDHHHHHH" label=1
binder="Nc3LysM (protein) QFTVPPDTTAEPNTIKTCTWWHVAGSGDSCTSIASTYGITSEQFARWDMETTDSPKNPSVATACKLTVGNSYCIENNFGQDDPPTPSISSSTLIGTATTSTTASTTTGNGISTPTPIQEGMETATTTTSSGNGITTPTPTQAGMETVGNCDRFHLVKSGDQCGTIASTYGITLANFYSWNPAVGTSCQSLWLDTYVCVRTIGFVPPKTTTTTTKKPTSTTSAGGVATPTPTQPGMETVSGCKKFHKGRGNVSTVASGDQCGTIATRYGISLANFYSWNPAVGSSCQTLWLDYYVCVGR" label=0
binder="CM2 (Cordyceps militaris) (protein) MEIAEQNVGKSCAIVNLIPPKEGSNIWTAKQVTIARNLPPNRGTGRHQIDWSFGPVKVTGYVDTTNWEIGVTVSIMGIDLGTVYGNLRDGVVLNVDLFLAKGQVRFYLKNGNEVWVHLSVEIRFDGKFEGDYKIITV" label=0
binder="MXA PilAct-eGFP (Myxococcus xanthus), Q59589 (protein) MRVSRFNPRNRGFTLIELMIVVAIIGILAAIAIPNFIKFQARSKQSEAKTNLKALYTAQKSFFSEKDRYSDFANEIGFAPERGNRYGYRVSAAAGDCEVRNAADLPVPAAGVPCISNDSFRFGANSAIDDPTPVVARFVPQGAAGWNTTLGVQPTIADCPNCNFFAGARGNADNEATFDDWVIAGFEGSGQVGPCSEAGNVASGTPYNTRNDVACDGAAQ" label=1
binder="Erv41-EDTA (Saccharomyces cerevisiae), Q04651 (protein) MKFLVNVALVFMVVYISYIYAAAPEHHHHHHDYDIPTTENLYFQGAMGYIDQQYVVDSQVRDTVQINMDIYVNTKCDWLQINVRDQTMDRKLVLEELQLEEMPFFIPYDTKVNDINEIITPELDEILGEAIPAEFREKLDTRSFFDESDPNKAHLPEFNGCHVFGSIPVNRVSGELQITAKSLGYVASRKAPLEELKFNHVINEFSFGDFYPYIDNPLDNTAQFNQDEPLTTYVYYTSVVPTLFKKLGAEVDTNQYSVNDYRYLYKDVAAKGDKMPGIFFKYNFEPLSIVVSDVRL" label=1
binder="AT3G09350(27) (Arabidopsis thaliana), Q84J81 (protein) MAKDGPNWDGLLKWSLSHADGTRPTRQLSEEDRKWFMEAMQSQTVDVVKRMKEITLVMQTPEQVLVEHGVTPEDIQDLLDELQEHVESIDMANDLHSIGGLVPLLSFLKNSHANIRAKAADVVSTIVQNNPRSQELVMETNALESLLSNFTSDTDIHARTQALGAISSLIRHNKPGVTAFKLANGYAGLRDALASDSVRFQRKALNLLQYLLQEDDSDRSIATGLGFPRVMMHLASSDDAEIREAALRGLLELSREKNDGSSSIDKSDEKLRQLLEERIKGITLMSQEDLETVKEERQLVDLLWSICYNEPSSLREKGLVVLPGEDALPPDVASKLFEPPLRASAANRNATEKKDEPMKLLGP" label=0
